# Test system: SW620/AD300
# test.name: Cytotoxicity against human overexpressing P-gp SW620/AD300 cells assessed as cell mortality rate at 5 uM measured after 48 hrs by CCK-8 method relative to control
# Type: functional
experimental.endpoint: mortality at 5 µM

Examples from the recorded data:
COc1ccc(C(=O)Nc2ccccc2C(=O)Nc2ccc(CCN3CCc4cc(OC)c(OC)cc4C3)cc2)cc1OC : 9%
COc1cc2c(cc1OC)CN(CCc1ccc(NC(=O)c3ccccc3NC(=O)C34CC5CC(CC(C5)C3)C4)cc1)CC2 : < 2%
COc1cc2c(cc1OC)CN(CCc1ccc(NC(=O)c3ccccc3NC(=O)c3ccc(C(=O)N4CCN(C(=O)CC56CC7CC(CC(C7)C5)C6)CC4)cc3)cc1)CC2 : < 2%

Task item: Look up and state reported mortality at 5 µM for COc1cc2c(cc1OC)CN(CCc1ccc(NC(=O)c3ccccc3NC(=O)c3ccc(NC(=O)CC45CC6CC(CC(C6)C4)C5)cc3)cc1)CC2
Reply: < 6%

Task item: Look up and state reported mortality at 5 µM for COc1cc2c(cc1OC)CN(CCc1ccc(NC(=O)c3ccccc3NC(=O)c3ccc(C(=O)NCCNC(=O)CC45CC6CC(CC(C6)C4)C5)cc3)cc1)CC2
Reply: < 6%

Task item: Look up and state reported mortality at 5 µM for COc1cc2c(cc1OC)CN(CCc1ccc(NC(=O)c3ccccc3NC(=O)CC34CC5CC(CC(C5)C3)C4)cc1)CC2
Reply: < 2%

Task item: Look up and state reported mortality at 5 µM for COc1cc2c(cc1OC)CN(CCc1ccc(NC(=O)c3ccccc3NC(=O)CCNC(=O)CC34CC5CC(CC(C5)C3)C4)cc1)CC2
Reply: < 6%
